Tested on: S. aureus ATCC 29213 biofilm
Test: biofilm inhibition assay (crystal violet)
Type: cell-based, Staphylococcus aureus
Conditions: ≥80% inhibition of biofilm formation, 48 h
The entries below come with measured MBIC80 (minimum biofilm inhibitory concentration) values attached.
Answer in µg/mL, number only, no unit symbol.

Example entries and their recorded answers appear below.
CCCCCCCOc1cccc(NC(=O)OC(CN(CCC)CCC)CN2CCCC2)c1.Cl.Cl (stereo not shown) [1h] :: 8
CCCCCCOc1cccc(NC(=O)OC(CN(CCC)CCC)CN2CCCC2)c1.Cl.Cl (stereo not shown) [1g] :: 8
CCCCCCCCCCCCOS(=O)(=O)[O-].[Na+] [SDS, sodium dodecyl sulfate, reference compound] :: 32

Output MBIC80 (minimum biofilm inhibitory concentration) of CCCCCCCCCCCCCCCC[N+](C)(C)Cc1ccccc1 [CTC, cetalkonium chloride, reference compound]
0.25

Output MBIC80 (minimum biofilm inhibitory concentration) of CCCCCOc1cccc(NC(=O)OC(CN(CCC)CCC)CN2CCCC2)c1.Cl.Cl (stereo not shown) [1f]
32
